src = patent US20250313621A1

Target: T1, Wildtype human PAR2 expressed on cells (human, UniProt P55085 37-397)
T1 sequence: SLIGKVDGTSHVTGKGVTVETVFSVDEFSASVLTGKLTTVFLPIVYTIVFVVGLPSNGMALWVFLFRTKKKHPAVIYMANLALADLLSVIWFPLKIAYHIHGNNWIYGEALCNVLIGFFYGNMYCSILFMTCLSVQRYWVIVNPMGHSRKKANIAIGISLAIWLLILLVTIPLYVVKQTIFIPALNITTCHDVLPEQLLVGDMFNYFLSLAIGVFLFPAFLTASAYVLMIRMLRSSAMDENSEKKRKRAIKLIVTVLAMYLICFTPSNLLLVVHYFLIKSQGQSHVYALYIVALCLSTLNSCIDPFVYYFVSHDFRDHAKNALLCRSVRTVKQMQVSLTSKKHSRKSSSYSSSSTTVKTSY
Experiment: cell-based or functional assay
Property measured: % Max Inhibition, Bovine Trypsin challenge, IP-One

### Prompt Any idea what % Max Inhibition, Bovine Trypsin challenge, IP-One was measured for Y022877 (antibody, human IgG1, lambda, V domains shown, also called Y22877) VH: EVQLLESGGGLVQPGGSLRLSCAASGFTFSRYAMTWVRQAPGKGLEWVSTISGLGQEAYYAGSVKGRFTISRDNSKNTLYLQMNSLRAEDTAVYYCARGFHYTHSGKRYYYPFDIWGQGTLVTVSS VL: QSALTQPASVSGSPGQSITISCTGTSSDVGSYNLVSWYQQHPGKAPKLMIYEGSKRPSGVSNRFSGSKSGNTASLTISGLQAEDEADYYCSQYATFIAFAVFGGGTKLTVLG ?
### Response 58%
